Source of measurements: paper PMC9795544

# system_tested: OATP1B3 (Homo sapiens, UniProt Q9NPD5)
# Construct: expressed in transfected cells; host or cells: A431 cells
# Sequence (Q9NPD5 1-702): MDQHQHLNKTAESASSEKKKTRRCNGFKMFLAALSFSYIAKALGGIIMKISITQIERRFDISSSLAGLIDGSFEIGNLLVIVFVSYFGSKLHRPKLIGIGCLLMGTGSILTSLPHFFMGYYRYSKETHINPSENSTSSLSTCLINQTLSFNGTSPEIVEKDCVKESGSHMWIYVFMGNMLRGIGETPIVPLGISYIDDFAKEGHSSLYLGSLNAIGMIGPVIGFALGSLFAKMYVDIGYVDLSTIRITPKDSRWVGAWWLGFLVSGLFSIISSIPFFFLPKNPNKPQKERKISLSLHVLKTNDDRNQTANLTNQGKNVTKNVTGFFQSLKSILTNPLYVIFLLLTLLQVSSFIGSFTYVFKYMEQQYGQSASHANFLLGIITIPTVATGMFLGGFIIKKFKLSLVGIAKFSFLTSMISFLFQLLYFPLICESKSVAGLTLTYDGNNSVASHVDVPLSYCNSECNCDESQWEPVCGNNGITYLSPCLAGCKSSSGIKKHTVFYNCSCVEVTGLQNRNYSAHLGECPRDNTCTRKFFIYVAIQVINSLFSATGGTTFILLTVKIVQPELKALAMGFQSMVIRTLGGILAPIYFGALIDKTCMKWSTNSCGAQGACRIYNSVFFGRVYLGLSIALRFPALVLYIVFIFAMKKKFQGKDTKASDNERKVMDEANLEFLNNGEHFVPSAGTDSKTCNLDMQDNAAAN
# assay_summary: Pyranine transport inhibition in A431 cells overexpressing OATP1B3
# Format: cell-based
# experimental_context: initial three-point screen (1, 10, 100 μM), category by concentration needed for 50% inhibition; pyranine 20 μM, 30 min, pH 5.5; read-out: IC50 (μM) OATP1B3
Entries and their IC50 values follow.

For orientation, consider the following solved cases.
IC50 for O=C(Nc1ccccc1)N1CCCC(C(=O)N2CCN(Cc3nc4ccccc4s3)CC2)C1 (stereo not drawn) is > 10 µM

IC50 for O=C(CC12CC3CC(CC(C3)C1)C2)NCC(=O)N1CCN(S(=O)(=O)c2ccccc2F)CC1 is > 10 µM

IC50 for Cc1cc(NS(=O)(=O)c2ccc(NC(=O)Cc3coc4c(C)c(C)ccc34)cc2)nc(C)n1 is 1 to 10 µM

IC50 for Cc1occc1-c1nnc(SCC(=O)c2ccc3c(c2)NC(=O)CO3)n1Cc1ccccc1 is > 10 µM

IC50 for N#Cc1c(NC(=O)COC(=O)CN2C(=O)NC3(CCc4ccccc43)C2=O)sc2c1CCCCC2 (stereo not drawn) is 1 to 10 µM

***
IC50 for CC1CCN(c2nnc(SCC(=O)NCC3COc4ccccc4O3)n2C2CC2)CC1 (stereo not drawn) is > 10 µM

IC50 for O=C(Nc1ccccc1)C1CCN(C(=O)c2cc(-c3ccccc3)nc3ccccc23)CC1 is 1 to 10 µM

IC50 for CSCCC(NC(=O)c1ccco1)C(=O)OCc1cc(=O)oc2cc(O)ccc12 (stereo not drawn) is > 10 µM

----------
# system_tested: OATP1B1 (Homo sapiens, UniProt Q9Y6L6)
# Construct: expressed in transfected cells; host or cells: A431 cells
# Sequence (Q9Y6L6 whole entry): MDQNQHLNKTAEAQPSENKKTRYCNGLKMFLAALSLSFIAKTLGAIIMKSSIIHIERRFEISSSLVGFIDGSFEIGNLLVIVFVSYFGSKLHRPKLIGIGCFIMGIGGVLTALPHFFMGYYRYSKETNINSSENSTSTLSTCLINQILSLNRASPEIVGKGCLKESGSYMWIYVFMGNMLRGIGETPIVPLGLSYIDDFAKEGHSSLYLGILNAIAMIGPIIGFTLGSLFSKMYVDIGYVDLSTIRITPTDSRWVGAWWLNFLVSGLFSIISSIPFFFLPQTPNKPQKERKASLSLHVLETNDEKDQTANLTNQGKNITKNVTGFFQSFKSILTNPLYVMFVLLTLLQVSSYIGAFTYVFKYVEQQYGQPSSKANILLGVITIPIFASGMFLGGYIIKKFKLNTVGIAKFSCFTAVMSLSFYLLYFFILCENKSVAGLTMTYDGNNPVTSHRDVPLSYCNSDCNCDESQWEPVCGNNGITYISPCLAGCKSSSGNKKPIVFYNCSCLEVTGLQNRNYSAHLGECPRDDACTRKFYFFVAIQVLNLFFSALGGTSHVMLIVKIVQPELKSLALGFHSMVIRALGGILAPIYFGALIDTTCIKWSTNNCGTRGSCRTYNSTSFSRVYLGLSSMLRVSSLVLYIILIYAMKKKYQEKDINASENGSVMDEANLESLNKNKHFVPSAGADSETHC
# assay_summary: Pyranine transport inhibition in A431 cells overexpressing OATP1B1
# Type: cell-based
# experimental_context: human, pH 5.5, probe pyranine 10 μM, initial three-point screen (1, 10, 100 μM), category by concentration needed for 50% inhibition; pyranine 10 μM, 15 min, pH 5.5; read-out: IC50 (μM) OATP1B1
readout_kind: IC50 at 15 min

IC50 at 15 min for COC(=O)c1c(NC(=O)CN2C(=O)NC3(CCc4ccccc4C3)C2=O)sc2c1CCCCC2 (stereo not shown) [H5] is > 10 µM
